These data points were gathered from patent US5705356A.

Could you please report measured Relative Activity for the items listed next?
Molecular target: Glycerol Dehydrogenase (GLY.DH) (Geobacillus stearothermophilus)
Sequence (P32816 whole entry, species assumed): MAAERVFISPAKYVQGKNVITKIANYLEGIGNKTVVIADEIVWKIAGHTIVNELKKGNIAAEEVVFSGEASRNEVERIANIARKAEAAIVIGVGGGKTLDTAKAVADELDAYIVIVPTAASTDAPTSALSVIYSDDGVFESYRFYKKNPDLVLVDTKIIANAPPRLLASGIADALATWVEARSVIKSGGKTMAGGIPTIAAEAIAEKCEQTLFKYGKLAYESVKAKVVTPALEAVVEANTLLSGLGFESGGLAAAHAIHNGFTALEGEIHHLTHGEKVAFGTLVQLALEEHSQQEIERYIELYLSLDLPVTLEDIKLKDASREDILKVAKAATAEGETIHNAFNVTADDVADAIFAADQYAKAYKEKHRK
Test: Relative activity of substrates with glycerol dehydrogenase (vs glycerol)
Type: biochemical
Details: relative to glycerol (100%)
The answer is to be given in %; state only the numeric part.

Prompt line: Please report the measured Relative Activity for OCC(O)CO [glycerol]
Response line: 100

Prompt line: Please report the measured Relative Activity for CC(O)C(C)O (stereo not shown) [2,3-Butanediol]
Response line: 52.6

Prompt line: Please report the measured Relative Activity for OCC(O)CCl (stereo not drawn) [Glycerol-α-monochlorohydrin]
Response line: 48.5

Prompt line: Please report the measured Relative Activity for OCCO [Ethylene glycol]
Response line: 7.8
